In this section we review reported protein stability index values for a set of variants.
B1: RAD54B (parent)
chain: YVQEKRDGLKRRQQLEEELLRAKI

- Variants of: B1
- measurement-notes: protein stability index of a GFP-peptide fusion (GPS, HEK-293T) (PSI 1-6); higher = more stable;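 also: lentivirally expressed fusions sorted by FACS into six bins by GFP to DsRed ratio, PSI derived from sequencing read proportions per bin multiplied by bin number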
- study-conditions: c terminus: a fixed tail appended
reported-endpoint: protein stability index

> print(dat)
   variant.spec  quantitative.result
1          R11Q                 2.32
2           R6S                 1.75
3          L20I                 1.76
4          A22L                 1.99
5          K10G                 2.28
6          E16W                 1.73
7           L9P                 2.36
